- Tested on: DeltatarO mutant
- ASSAY REMARKS: S. aureus survival, RN4220 and DeltatarO strains – OD600, teichoic acid synthesis inhibitors, primary screen (AID 463173)
- EXPERIMENTAL CONTEXT: S. aureus RN4220 wild type/DeltatarO growth, OD600, 18 h, stronger effect = lower value, screened at 18.75 µg/mL (by protocol)
The campaign covered roughly 52,000 compounds. About 4,300 (8.3%) were called active. Shown is part of a subset that was picked to be rich in actives.
Label key: t means survival under 50%; f means survival of 50% or more.

- COMPOUND: "CCOC(=O)c1cnc2c(Cl)cc(Cl)cc2c1Nc1cc(C(=O)O)ccc1C"
  ASSIGNED CLASS: "f"
- COMPOUND: "CCSc1nc(-c2cccc(Cl)c2)nc2c1Cc1c(CO)cnc(C)c1O2"
  ASSIGNED CLASS: "f"
- COMPOUND: "CCOC(=O)c1cnc2c(C)cccc2c1Nc1ccc(OC(C)C)cc1"
  ASSIGNED CLASS: "t"
- COMPOUND: "COc1ccc(CCNC(=O)c2cc(S(=O)(=O)N3CCCC(C)C3)cn2C)cc1OC (stereo unspecified)"
  ASSIGNED CLASS: "t"
- COMPOUND: "COc1cccc(CNC(=O)c2cc(S(=O)(=O)N3CCCCCC3)cn2C)c1"
  ASSIGNED CLASS: "f"
- COMPOUND: "N#Cc1nc(/C=C/c2ccc(F)cc2)oc1N1CCCCC1"
  ASSIGNED CLASS: "f"
- COMPOUND: "CCOC(=O)c1cnc2c(C(F)(F)F)cccc2c1Cl"
  ASSIGNED CLASS: "f"
- COMPOUND: "Cc1oc2cc3oc(=O)c(CC(=O)NCc4ccccc4)c(C)c3cc2c1C"
  ASSIGNED CLASS: "f"
- COMPOUND: "COc1cccc(CNC(=O)c2cc(S(=O)(=O)N3CCCCC3)cn2C)c1"
  ASSIGNED CLASS: "t"
- COMPOUND: "CCOC(=O)c1cnc2c(C(F)(F)F)cccc2c1Nc1cccc(C(=O)OC)c1"
  ASSIGNED CLASS: "t"
- COMPOUND: "CCSc1nc(-c2ccccc2)nc2c1Cc1c(CO)cnc(C)c1O2"
  ASSIGNED CLASS: "f"

###

- System: DeltatarO mutant
- ASSAY REMARKS: S. aureus survival, RN4220 and DeltatarO strains – OD600, teichoic acid synthesis inhibitors, primary screen (AID 463173)
- EXPERIMENTAL CONTEXT: S. aureus RN4220 wild type/DeltatarO growth, OD600, 18 h, stronger effect = lower value, screened at 18.75 µg/mL (by protocol)
In all, about 52,000 compounds went through this assay and about 4,300 (8.3%) were called active. The sample as a whole holds a higher share of actives than the screen did.
Some molecules, each annotated with its measured survival.

- MOLECULE: "O=C(c1ccc2c(c1)C(=O)N(CCCO)C2=O)c1ccc2c(c1)C(=O)N(CCCO)C2=O"
  SYSTEM TESTED: "DeltatarO mutant"
  survival [%]: 70
- MOLECULE: "COc1ccc(OC)c(NC(=O)c2ccccc2)c1"
  SYSTEM TESTED: "DeltatarO mutant"
  survival [%]: 105
- MOLECULE: "Cc1ccc(/C=C/c2nc3ccccc3[nH]2)cc1"
  SYSTEM TESTED: "DeltatarO mutant"
  survival [%]: 67
- MOLECULE: "COc1ccc(Nc2nnc(-c3ccc(C)c(S(N)(=O)=O)c3)c3ccccc23)cc1"
  SYSTEM TESTED: "DeltatarO mutant"
  survival [%]: 70
- MOLECULE: "Cn1c(=O)c2sccc2n2c(CCCC(=O)Nc3ccc(Oc4ccc(Cl)cc4)cc3)nnc12"
  SYSTEM TESTED: "DeltatarO mutant"
  survival [%]: 24
- MOLECULE: "CC(=O)C1=C(OC(=O)C(C)C)c2ccccc2S(=O)(=O)N1Cc1ccccc1"
  SYSTEM TESTED: "DeltatarO mutant"
  survival [%]: 104
- MOLECULE: "COc1ccccc1NC(=O)c1cccc(S(=O)(=O)N2CCCCCC2)c1"
  SYSTEM TESTED: "DeltatarO mutant"
  survival [%]: 40
- MOLECULE: "COc1cc(S(=O)(=O)N2CCN(c3ccccc3F)CC2)c(OC)cc1Cl"
  SYSTEM TESTED: "DeltatarO mutant"
  survival [%]: 87
- MOLECULE: "Cc1ccc(-n2ncc3c(Nc4ccc5c(c4)OCCO5)ncnc32)cc1Cl"
  SYSTEM TESTED: "DeltatarO mutant"
  survival [%]: 117
- MOLECULE: "CCCCN(CC)CCNC(=O)c1nn(C)c2c1CS(=O)(=O)c1ccccc1-2"
  SYSTEM TESTED: "DeltatarO mutant"
  survival [%]: 56
- MOLECULE: "CCOC(=O)Cn1c(=O)n(C2CCCCC2)c2nc(-c3ccc(OCC)cc3)nc(C(N)=O)c21"
  SYSTEM TESTED: "DeltatarO mutant"
  survival [%]: 86
- MOLECULE: "COc1ccccc1NC(=O)c1ccccc1NC(=O)c1ccccc1"
  SYSTEM TESTED: "DeltatarO mutant"
  survival [%]: 20
- MOLECULE: "NC(=O)CN(C1CCCCC1)S(=O)(=O)c1ccc(Br)cc1"
  SYSTEM TESTED: "DeltatarO mutant"
  survival [%]: 96
- MOLECULE: "Cc1c(Cl)cccc1NC(=O)CCn1nc(C)c2c(C)n(-c3ccccc3)nc2c1=O"
  SYSTEM TESTED: "DeltatarO mutant"
  survival [%]: 92
- MOLECULE: "CCN(Cc1ccccc1)C(=O)CN1C(=O)COc2ccc(S(=O)(=O)N3CCCCCC3)cc21"
  SYSTEM TESTED: "DeltatarO mutant"
  survival [%]: 95
- MOLECULE: "COc1ccc(CC(NC(C)=O)C(=O)N2CCN(C(=O)Nc3ccc(C#N)cc3)CC2)cc1 (stereo unspecified)"
  SYSTEM TESTED: "DeltatarO mutant"
  survival [%]: 99
- MOLECULE: "COc1cccc(C2CC(=O)N(c3ccc(F)cc3)C3=C2C(=O)OC3)c1OC (stereo unspecified)"
  SYSTEM TESTED: "DeltatarO mutant"
  survival [%]: 75
- MOLECULE: "Cn1c(=O)c2sccc2n2c(CCCC(=O)Nc3ccc(Oc4ccccc4)cc3)nnc12"
  SYSTEM TESTED: "DeltatarO mutant"
  survival [%]: 53
- MOLECULE: "Cc1ccc(-n2nc3ccc(NC(=O)Cc4ccc(Cl)cc4)cc3n2)cc1"
  SYSTEM TESTED: "DeltatarO mutant"
  survival [%]: 79
- MOLECULE: "O=C(Nc1ccccc1C(=O)O)c1cccc(S(=O)(=O)N2CCCC2)c1"
  SYSTEM TESTED: "DeltatarO mutant"
  survival [%]: 87
- MOLECULE: "CC(=O)c1cccc(NC(=O)c2nc3ccccc3nc2N2CCCCC2)c1"
  SYSTEM TESTED: "DeltatarO mutant"
  survival [%]: 71

Source of measurements: PubChem BioAssay AID463173
